Origin of values: patent US20240366589A1

Test system: absorption of sodium from the intestinal lumen
assay protocol: Inhibition of intestinal sodium absorption: urinary sodium (uNa) 16 h after single oral dose in rats
Type: in vivo, rat
condition description: oral gavage, dose 3 mg/kg, 16 h post-dose
Grouping rule (Urine Na % of control): range 1: < 40%; range 2: ≥ 40% and < 60%; range 3: ≥ 60%

compound	class
CN1Cc2c(Cl)cc(Cl)cc2[C@H](c2cccc(S(=O)(=O)NCCOCCOCCNC(=O)CCN(CCC(=O)NCCOCCOCCNS(=O)(=O)c3cccc([C@@H]4CN(C)Cc5c(Cl)cc(Cl)cc54)c3)CCC(=O)NCCOCCOCCNS(=O)(=O)c3cccc([C@@H]4CN(C)Cc5c(Cl)cc(Cl)cc54)c3)c2)C1	range 2
CN1Cc2c(Cl)cc(Cl)cc2[C@H](c2cccc(S(=O)(=O)NCCOCCOCCNC(=O)CCC(CCC(=O)NCCOCCOCCNS(=O)(=O)c3cccc([C@@H]4CN(C)Cc5c(Cl)cc(Cl)cc54)c3)(CCC(=O)NCCOCCOCCNS(=O)(=O)c3cccc([C@@H]4CN(C)Cc5c(Cl)cc(Cl)cc54)c3)N(C)C)c2)C1	range 1
CN1Cc2c(Cl)cc(Cl)cc2[C@H](c2cccc(S(=O)(=O)NCCOCCOCCNC(=O)NCCC(CCNC(=O)NCCOCCOCCNS(=O)(=O)c3cccc([C@@H]4CN(C)Cc5c(Cl)cc(Cl)cc54)c3)(CCNC(=O)NCCOCCOCCNS(=O)(=O)c3cccc([C@@H]4CN(C)Cc5c(Cl)cc(Cl)cc54)c3)NC(=O)COCC(=O)O)c2)C1	range 1

Q: Given CN1Cc2c(Cl)cc(Cl)cc2[C@H](c2cccc(S(=O)(=O)NCCOCCOCCOCCNC(=O)CCN(CCC(=O)NCCOCCOCCOCCNS(=O)(=O)c3cccc([C@@H]4CN(C)Cc5c(Cl)cc(Cl)cc54)c3)CCC(=O)NCCOCCOCCOCCNS(=O)(=O)c3cccc([C@@H]4CN(C)Cc5c(Cl)cc(Cl)cc54)c3)c2)C1 , name the class its Urine Na % of control places it in.
Result: range 2

Q: For CN(C)[C@H]1Cc2c(Cl)cc(Cl)cc2[C@@H]1Oc1ccc(S(=O)(=O)NCCOCCOCCNC(=O)COCC(=O)NCCOCCOCCNS(=O)(=O)c2ccc(O[C@H]3c4cc(Cl)cc(Cl)c4C[C@@H]3N(C)C)cc2)cc1 , which Urine Na % of control bin applies?
Result: range 2

Q: Which band does CN1Cc2c(Cl)cc(Cl)cc2[C@H](c2cccc(S(=O)(=O)NCCOCCOCCNC(=O)NCCCC(CCCNC(=O)NCCOCCOCCNS(=O)(=O)c3cccc([C@@H]4CN(C)Cc5c(Cl)cc(Cl)cc54)c3)(CCCNC(=O)NCCOCCOCCNS(=O)(=O)c3cccc([C@@H]4CN(C)Cc5c(Cl)cc(Cl)cc54)c3)NC(=O)COCC(=O)O)c2)C1 fall in?
Result: range 3

Q: Which category fits this record: CN1Cc2c(Cl)cc(Cl)cc2[C@H](c2cccc(S(=O)(=O)NCCOCCOCCNCCCC(CCC(=O)NCCOCCOCCNS(=O)(=O)c3cccc([C@@H]4CN(C)Cc5c(Cl)cc(Cl)cc54)c3)(CCC(=O)NCCOCCOCCNS(=O)(=O)c3cccc([C@@H]4CN(C)Cc5c(Cl)cc(Cl)cc54)c3)NC(=O)N3CCN(CCOCCO)CC3)c2)C1
Result: range 1

Q: Hey, which category is CN1Cc2c(Cl)cc(Cl)cc2[C@H](c2cccc(S(=O)(=O)N(C)CCOCCOCCNC(=O)NCCCN(CCCNC(=O)NCCOCCOCCN(C)S(=O)(=O)c3cccc([C@@H]4CN(C)Cc5c(Cl)cc(Cl)cc54)c3)CCCNC(=O)NCCOCCOCCN(C)S(=O)(=O)c3cccc([C@@H]4CN(C)Cc5c(Cl)cc(Cl)cc54)c3)c2)C1 in, do you know?
Result: range 3

* * *

Tested on: absorption of sodium from the intestinal lumen
assay protocol: Inhibition of intestinal sodium absorption: urinary sodium (uNa) 16 h after single oral dose in rats
Assay type: in vivo, rat
condition description: oral gavage, dose 3 mg/kg, 16 h post-dose
endpoint label: Urine Na % of control (%)
One number for each entry, in %.

// worked examples, Urine Na % of control included
compound	test system	endpoint label	unit spec	recorded measurement
CN1Cc2c(Cl)cc(Cl)cc2[C@H](c2cccc(S(=O)(=O)NCCOCCOCCNC(=O)CCC(CCC(=O)NCCOCCOCCNS(=O)(=O)c3cccc([C@@H]4CN(C)Cc5c(Cl)cc(Cl)cc54)c3)(CCC(=O)NCCOCCOCCNS(=O)(=O)c3cccc([C@@H]4CN(C)Cc5c(Cl)cc(Cl)cc54)c3)NC(=O)NCCS(=O)(=O)O)c2)C1 [compound 157]	absorption of sodium from the intestinal lumen	Urine Na % of control	%	26
CN1Cc2c(Cl)cc(Cl)cc2[C@H](c2cccc(S(=O)(=O)NCCOCCOCCNC(=O)NCCCC(CCCNC(=O)NCCOCCOCCNS(=O)(=O)c3cccc([C@@H]4CN(C)Cc5c(Cl)cc(Cl)cc54)c3)(CCCNC(=O)NCCOCCOCCNS(=O)(=O)c3cccc([C@@H]4CN(C)Cc5c(Cl)cc(Cl)cc54)c3)NC(=O)CCC(=O)O)c2)C1 [compound 155]	absorption of sodium from the intestinal lumen	Urine Na % of control	%	40

Turning now to a further compound:
Q: Recall the reported Urine Na % of control of CN1Cc2c(Cl)cc(Cl)cc2[C@H](c2cccc(S(=O)(=O)NCCOCCOCCNC(=O)CCC(N)(CCC(=O)NCCOCCOCCNS(=O)(=O)c3cccc([C@@H]4CN(C)Cc5c(Cl)cc(Cl)cc54)c3)CCC(=O)NCCOCCOCCNS(=O)(=O)c3cccc([C@@H]4CN(C)Cc5c(Cl)cc(Cl)cc54)c3)c2)C1 [compound 88] when tested on absorption of sodium from the intestinal lumen.
Result: 22

* * *

test system: Rat NHE3 (Rattus norvegicus, UniProt P26433)
Construct: expressed in transfected cells; host or cells: Opossum kidney (OK) cells (ATCC), electroporation
Sequence (P26433 29-831): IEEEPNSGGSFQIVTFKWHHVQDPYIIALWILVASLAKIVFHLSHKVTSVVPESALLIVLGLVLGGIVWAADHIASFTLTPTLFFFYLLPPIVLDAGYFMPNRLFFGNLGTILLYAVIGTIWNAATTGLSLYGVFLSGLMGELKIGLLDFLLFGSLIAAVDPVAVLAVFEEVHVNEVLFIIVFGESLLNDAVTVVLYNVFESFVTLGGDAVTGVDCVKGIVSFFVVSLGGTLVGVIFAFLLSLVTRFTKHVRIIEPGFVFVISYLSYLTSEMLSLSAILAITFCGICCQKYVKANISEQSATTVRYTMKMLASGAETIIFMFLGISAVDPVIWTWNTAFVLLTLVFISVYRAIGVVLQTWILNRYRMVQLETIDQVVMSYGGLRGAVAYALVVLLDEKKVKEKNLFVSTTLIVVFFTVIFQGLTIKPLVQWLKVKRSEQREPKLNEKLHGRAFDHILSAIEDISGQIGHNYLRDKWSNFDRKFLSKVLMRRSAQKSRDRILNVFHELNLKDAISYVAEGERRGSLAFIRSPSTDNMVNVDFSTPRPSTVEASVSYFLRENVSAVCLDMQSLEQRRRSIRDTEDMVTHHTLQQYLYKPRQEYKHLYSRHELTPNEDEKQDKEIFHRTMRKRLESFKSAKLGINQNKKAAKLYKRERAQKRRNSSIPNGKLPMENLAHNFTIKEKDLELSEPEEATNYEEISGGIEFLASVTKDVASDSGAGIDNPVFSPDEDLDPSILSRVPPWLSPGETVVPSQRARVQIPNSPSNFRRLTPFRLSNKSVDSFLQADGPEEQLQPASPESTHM
assay protocol: Cell-based NHE3 activity under prompt conditions (OK cells, BCECF pH recovery), rat NHE3
condition description: prompt conditions
Procedure: Cell-based activity under Prompt Conditions. Rat or human NHE3-mediated Na^+-dependent H antiport was measured using a modification of the pH sensitive dye method originally reported by Paradiso (PNAS USA. 81:7436-7440, 1984). Opossum kidney (OK) cells were obtained from the ATCC and propagated per their instructions. […]
endpoint label: Prompt Rat NHE3 pIC50
Numbers only.

Some solved cases for reference:
molecule	test system	Prompt Rat NHE3 pIC50
CN1Cc2c(Cl)cc(Cl)cc2[C@H](c2cccc(S(=O)(=O)NCCOCCOCCNC(=O)CN(CC(=O)NCCOCCOCCNS(=O)(=O)c3cccc([C@@H]4CN(C)Cc5c(Cl)cc(Cl)cc54)c3)CC(=O)NCCOCCOCCNS(=O)(=O)c3cccc([C@@H]4CN(C)Cc5c(Cl)cc(Cl)cc54)c3)c2)C1 [compound 74]	Rat NHE3 (Rattus norvegicus, UniProt P26433)	6.30
CN1Cc2c(Cl)cc(Cl)cc2[C@H](c2cccc(S(=O)(=O)N(CCO)CCOCCOCCNC(=O)NCCCN(CCCNC(=O)NCCOCCOCCN(CCO)S(=O)(=O)c3cccc([C@@H]4CN(C)Cc5c(Cl)cc(Cl)cc54)c3)CCCNC(=O)NCCOCCOCCN(CCO)S(=O)(=O)c3cccc([C@@H]4CN(C)Cc5c(Cl)cc(Cl)cc54)c3)c2)C1 [compound 146]	Rat NHE3 (Rattus norvegicus, UniProt P26433)	7.80
CN(C)[C@H]1Cc2c(Cl)cc(Cl)cc2[C@@H]1Oc1ccc(S(=O)(=O)NCCOCCOCCNC(=O)NCCCCNC(=O)NCCOCCOCCNS(=O)(=O)c2ccc(O[C@H]3c4cc(Cl)cc(Cl)c4C[C@@H]3N(C)C)cc2)cc1 [compound 127]	Rat NHE3 (Rattus norvegicus, UniProt P26433)	8.20

I need Prompt Rat NHE3 pIC50 for every entry listed below, if you could help.
1. CN1Cc2c(Cl)cc(Cl)cc2[C@H](c2cccc(S(=O)(=O)NCCOCCOCCNC(=O)NCCCCNC(=O)NCCOCCOCCNS(=O)(=O)c3cccc([C@@H]4CN(C)Cc5c(Cl)cc(Cl)cc54)c3)c2)C1 [compound 180]
2. N=C(N)Nc1nc(-c2ccc(OCCOCCOCCOCCNC(=O)NCCOCCOCCNC(=O)NCCCCNC(=O)NCCOCCOCCNC(=O)NCCOCCOCCOCCOc3ccc(-c4nc(NC(=N)N)nc5ccc(Cl)cc45)cc3)cc2)c2cc(Cl)ccc2n1 [compound 36]
3. CN1Cc2c(Cl)cc(Cl)cc2[C@H](c2cccc(S(=O)(=O)NCCOCCOCCNC(=O)CCC(CCC(=O)NCCOCCOCCNS(=O)(=O)c3cccc([C@@H]4CN(C)Cc5c(Cl)cc(Cl)cc54)c3)(CCC(=O)NCCOCCOCCNS(=O)(=O)c3cccc([C@@H]4CN(C)Cc5c(Cl)cc(Cl)cc54)c3)NC(=O)Cc3nnn[nH]3)c2)C1 [compound 156]
4. CN1Cc2c(Cl)cc(Cl)cc2[C@H](c2cccc(S(=O)(=O)NCCOCCOCCNC(=O)NCCN(CCNC(=O)NCCOCCOCCNS(=O)(=O)c3cccc([C@@H]4CN(C)Cc5c(Cl)cc(Cl)cc54)c3)C(=O)NCCCCCCCCCCCCNC(=O)N(CCNC(=O)NCCOCCOCCNS(=O)(=O)c3cccc([C@@H]4CN(C)Cc5c(Cl)cc(Cl)cc54)c3)CCNC(=O)NCCOCCOCCNS(=O)(=O)c3cccc([C@@H]4CN(C)Cc5c(Cl)cc(Cl)cc54)c3)c2)C1 [compound 86]
5. O=C(NCCOCCOCCOCCNS(=O)(=O)c1ccc(O[C@H]2c3ccccc3C[C@@H]2N2CCCCC2)cc1)c1cccc(C(=O)NCCOCCOCCOCCNS(=O)(=O)c2ccc(O[C@H]3c4ccccc4C[C@@H]3N3CCCCC3)cc2)c1 [compound 118]

Result:
8.03
7.60
6.70
5.80
7.40

// for each molecule below, give its Prompt Rat NHE3 pIC50
1. NCCOCCOCCNS(=O)(=O)c1ccc(O[C@H]2c3ccccc3C[C@@H]2N2CCCCC2)cc1 [compound 60]
2. CN1Cc2c(Cl)cc(Cl)cc2[C@H](c2cccc(S(=O)(=O)NCCOCCOCCNC(=O)NCCCC(CCCNC(=O)NCCOCCOCCNS(=O)(=O)c3cccc([C@@H]4CN(C)Cc5c(Cl)cc(Cl)cc54)c3)(CCCNC(=O)NCCOCCOCCNS(=O)(=O)c3cccc([C@@H]4CN(C)Cc5c(Cl)cc(Cl)cc54)c3)NC(=O)CCC(=O)O)c2)C1 [compound 155]
3. CN1Cc2c(Cl)cc(Cl)cc2C(c2cccc(S(=O)(=O)NCCOCCOCCOCCNC(=O)NCCN(CCNC(=O)NCCOCCOCCOCCNS(=O)(=O)c3cccc([C@@H]4CN(C)Cc5c(Cl)cc(Cl)cc54)c3)CCNC(=O)NCCOCCOCCOCCNS(=O)(=O)c3cccc([C@@H]4CN(C)Cc5c(Cl)cc(Cl)cc54)c3)c2)C1 (stereo in doubt) [compound 59]
4. CN(C)[C@H]1Cc2c(Cl)cc(Cl)cc2[C@@H]1Oc1ccc(S(=O)(=O)NCCOCCOCCNC(=O)CCC(=O)NCCOCCOCCNS(=O)(=O)c2ccc(O[C@H]3c4cc(Cl)cc(Cl)c4C[C@@H]3N(C)C)cc2)cc1 [compound 148]
5. CN(C)[C@H]1Cc2c(Cl)cc(Cl)cc2[C@@H]1Oc1ccc(S(=O)(=O)NCCOCCOCCNC(=O)CCC(C)(N)CCC(=O)NCCOCCOCCNS(=O)(=O)c2ccc(O[C@H]3c4cc(Cl)cc(Cl)c4C[C@@H]3N(C)C)cc2)cc1 [compound 174]

Result:
1. 6.35
2. 7.70
3. 6.90
4. 8.40
5. 8.60
